test system: UO-31; test: NCI tumour cell line growth inhibition, 48 h
Activity calls are given as the source filed them. No stated cut-off is given here; in the data, active = GI50 up to about 1.1 µM and inactive = higher.
Catalogue of molecules with associated GI50

Consider the following illustrative entries.
- CN1CCN(C(=S)N2CCN(C)CC2)CC1: > 100 µM (inactive)
- Cc1ccc(S(=O)(=O)N/N=C2/CCC(C(C)(C)C)CC2Br)cc1 (centres undefined): 17.2 µM (inactive)
- COC1CC(C)([N+](=O)[O-])C(O)C(C)O1 (centres undefined): > 100 µM (inactive)
- Cc1c(-c2nnc(-c3ccccc3)o2)c(=O)n(-c2ccccc2)n1C: > 100 µM (inactive)
- NN/C(=N\S(=O)(=O)c1cccc2nsnc12)Nc1ccc(Cl)cc1: > 100 µM (inactive)

Input line: May I ask what GI50 has been recorded for CC(C)SC(C)(NC(=O)C1C(C)(C)CCC1(C)C)C(=O)O (centres undefined) ?
Output line: > 100 µM (inactive)

Input line: Ok, now Cc1cn(C2OC(CO[Si](C)(C)C(C)(C)C)C(N(C)O[Si](C)(C)C(C)(C)C)C2[Se]c2ccccc2)c(=O)[nH]c1=O (centres undefined)
Output line: 3.23 µM (inactive)

Input line: Ok, now CCOC(=O)N1C2C=C(C)C(ON2C(=O)c2ccccc2)C2C(C)C(=O)N21 (centres undefined)
Output line: > 100 µM (inactive)

Input line: Ok, now `O=C(O)c1cc(Cl)cc(NC(=O)C(Cl)Cl)c1Cl`
Output line: > 100 µM (inactive)

Input line: Ok, now COCOC1/C=C/CCCC#C[C@H](C)C(=O)CC1 (some centres undefined)
Output line: 14.8 µM (inactive)

Input line: Ok, now CC12ON=C(c3ccccc3)N1C=CN1C(c3ccccc3)=NOC12 (centres undefined)
Output line: > 100 µM (inactive)

Input line: Ok, now `Cc1cccc(Nc2nn3c(=O)c4c5c(sc4nc3s2)CCCC5)c1`
Output line: > 100 µM (inactive)

Input line: Ok, now `O=c1[nH]c(-c2ccccc2)nc2cc(Cl)ccc12`
Output line: > 100 µM (inactive)

Input line: Ok, now CCOP(=O)(C=C=C1CCC2[C@@H]3CCc4cc(OC)ccc4C3CC[C@]12C)OCC (some centres undefined)
Output line: < 0.01 µM (active)

---

tested on: HCT-15
Catalogue of compounds with associated GI50

• CCCCCCCCCC1(N=[N+]=[N-])C(=O)c2ccccc2N(C)C1=O (stereo unspecified) = 30.3 µM
• COc1cc(/C=C2\N=C(c3ccccc3)N(c3ccc(C(=O)c4ccccc4)cc3N3C(=O)/C(=C/c4ccc(O)c(OC)c4)N=C3c3ccccc3)C2=O)ccc1O = 5.28 µM
• Cc1cc(NCc2ccccc2)c2ccccc2[n+]1CCCCCCCCCC[n+]1c(C)cc(NCc2ccccc2)c2ccccc21.[O-][Cl+3]([O-])([O-])[O-].[O-][Cl+3]([O-])([O-])[O-] = 1.89 µM
• CO[C@@]12[C@H](COC(N)=O)C3=C(C(=O)C(C)=C(N)C3=O)N1C[C@H]1[C@@H]2N1C (stereo partly specified) = 2.57 µM
• NC(=O)c1csc(C2O[C@@H](COP(=O)(O)OP(=O)(O)OC[C@H]3OC(n4cnc5c(N)ncnc54)[C@H](O)[C@@H]3O)[C@H](O)[C@@H]2O)n1 (stereo partly specified) = > 100 µM
• COc1ccc(/C=C2\CCc3ccccc3C2=O)cc1OC = 17.2 µM
• CCOC(=O)NC(=S)NC(C)c1ccccc1 (stereo unspecified) = > 100 µM
• CC1CC(C)C2=NOS3=C2C1=NO3 (stereo unspecified) = > 100 µM

Input line: May I ask what GI50 has been recorded for Nc1nc(I)nc2c1ncn2C1OC(COS(N)(=O)=O)C(O)C1O (stereo unspecified) ?
Output line: 0.0176 µM

Input line: Ok, now `CN(O)C(=O)CCCC(=O)NCC(C)(C)CNC(=O)CCCC(=O)N(C)O`
Output line: > 100 µM

Input line: Ok, now `C=CCc1cccc2cc(C(N)=O)c(=N)oc12`
Output line: > 100 µM

Input line: Ok, now BrCC(Br)(c1ccccc1)c1ccccc1-c1cc(-c2ccccc2)cc(-c2ccccc2)n1 (stereo unspecified)
Output line: 15.2 µM

Input line: Ok, now `CN(C)c1cccc2c(S(=O)(=O)NCCN)cccc12`
Output line: > 100 µM

Input line: Ok, now `COc1cc(C[C@H]2c3cc(OC)c(OC)cc3CCN2C)c(Oc2cc3c(cc2OC)-c2c(OC)c(OC)cc4c2[C@H](C3)N(C)CC4)cc1OC`
Output line: 5.04 µM

Input line: Ok, now `O=C(Cn1c2ccc(Br)cc2c2nc3ccccc3nc21)Nc1ccccc1`
Output line: 25.1 µM

Data credit: ChEMBL document CHEMBL1201862
